assay: Unbound fraction in plasma; assay type: in vitro ADME, human; settings: human, plasma, oral, 20 mg, fu,av, hepatic impairment study, severe impairment; median (min-max)

compound: Cn1cnc2c(F)c(Nc3ccc(Br)cc3Cl)c(C(=O)NOCCO)cc21 [Selumetinib]
fraction unbound: 0.0065

====

type: in vivo, human; conditions: human, plasma, oral, 50 mg, t1/2, healthy subjects; arithmetic mean (SD)

smiles_record: Cn1cnc2c(F)c(Nc3ccc(Br)cc3Cl)c(C(=O)NOCCO)cc21
half-life: 8.02 h

====

test: Unbound fraction in plasma; assay type: in vitro ADME, human; conditions: human, plasma, oral, 50 mg, fu,av, hepatic impairment study, moderate impairment, 50 mg dose only; median (min-max)

smiles_record: Cn1cnc2c(F)c(Nc3ccc(Br)cc3Cl)c(C(=O)NOCCO)cc21
fraction unbound: 0.003
